As an illustration, consider measured IC50 for compounds on human PHD2184-418 (Homo sapiens (Human), UniProt Q9GZT9).
Sequence (Q9GZT9 184-418): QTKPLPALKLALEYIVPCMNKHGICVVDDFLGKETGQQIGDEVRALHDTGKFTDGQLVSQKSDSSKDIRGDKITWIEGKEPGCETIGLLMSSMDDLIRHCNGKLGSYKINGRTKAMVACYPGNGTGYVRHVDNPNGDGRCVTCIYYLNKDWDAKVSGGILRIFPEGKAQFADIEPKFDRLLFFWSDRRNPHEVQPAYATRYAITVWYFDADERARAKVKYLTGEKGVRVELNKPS
quantity: IC50 (nM)

compoundstructure=O=C(O)c1ccc(CN2CC[C@H](n3c(=O)n(-c4ccc(-c5ccccc5)cc4)c4cccnc43)C2)nc1 quantity=IC50 assayresult=520
compoundstructure=Cn1c(C(=O)O)cnc1CN1CC[C@H](n2c(=O)n(-c3ccc(Oc4ccccc4)cc3)c3cccnc32)C1 quantity=IC50 assayresult=410
compoundstructure=Cc1cnc2c(c1)n(-c1ccc(-c3ccc(C(=O)O)cc3)cc1)c(=O)n2[C@H]1CCN(Cc2ncc(C(=O)O)n2C)C1 quantity=IC50 assayresult=110
compoundstructure=Cn1c(C(=O)O)cnc1CN1CCC(C)(n2c(=O)n(-c3ccc(-c4ccccc4)cc3)c3cccnc32)CC1 quantity=IC50 assayresult=5500
